The next entries give measured MIC for S. aureus ATCC 33591 (Sa91).

{"STRUCTURE_SMILES_STRING": "O=C(O)c1ccc(-n2cc(/C=N/N(Cc3ccccc3)c3ccccc3)c(-c3cccc(F)c3)n2)cc1", "MIC": "1.56 µg/mL"}
{"STRUCTURE_SMILES_STRING": "O=C(O)c1ccc(-n2cc(/C=N/Nc3c(F)c(F)c(F)c(F)c3F)c(-c3cccc(F)c3)n2)cc1", "MIC": "12.5 µg/mL"}
{"STRUCTURE_SMILES_STRING": "O=C(O)c1ccc(-n2cc(/C=N/Nc3cccc(Cl)c3)c(-c3cccc(F)c3)n2)cc1", "MIC": "12.5 µg/mL"}
{"STRUCTURE_SMILES_STRING": "O=C(O)c1ccc(-n2cc(/C=N/Nc3ccc(C(F)(F)F)cc3)c(-c3cccc(F)c3)n2)cc1", "MIC": "6.25 µg/mL"}

----------
Measured MIC, listed per entry for reference.
Tested on: S. aureus ATCC 33591 (Sa91)

{"STRUCTURE_SMILES_STRING": "O=C(O)c1ccc(-n2cc(/C=N/Nc3cccc(Cl)c3F)c(-c3cccc(F)c3)n2)cc1", "MIC": "6.25 µg/mL"}
{"STRUCTURE_SMILES_STRING": "O=C(O)c1ccc(-n2cc(/C=N/Nc3ccc(Br)cc3)c(-c3cccc(F)c3)n2)cc1", "MIC": "12.5 µg/mL"}
{"STRUCTURE_SMILES_STRING": "CN(/N=C/c1cn(-c2ccc(C(=O)O)cc2)nc1-c1ccc(F)cc1)c1ccccc1", "MIC": "12.5 µg/mL"}
{"STRUCTURE_SMILES_STRING": "O=C(O)c1ccc(-n2cc(/C=N/Nc3cc(F)ccc3F)c(-c3cccc(F)c3)n2)cc1", "MIC": "12.5 µg/mL"}
{"STRUCTURE_SMILES_STRING": "O=C(O)c1ccc(-n2cc(/C=N/Nc3ccc(F)cc3)c(-c3ccc(F)cc3)n2)cc1", "MIC": "25 µg/mL"}
{"STRUCTURE_SMILES_STRING": "O=C(O)c1ccc(-n2cc(/C=N/Nc3cc(F)ccc3F)c(-c3ccc(F)cc3)n2)cc1", "MIC": "25 µg/mL"}
{"STRUCTURE_SMILES_STRING": "O=C(O)c1ccc(-n2cc(/C=N/Nc3ccc(Cl)cc3Cl)c(-c3cccc(F)c3)n2)cc1", "MIC": "3.12 µg/mL"}
{"STRUCTURE_SMILES_STRING": "O=C(O)c1ccc(-n2cc(/C=N/Nc3cccc(Br)c3)c(-c3cccc(F)c3)n2)cc1", "MIC": "12.5 µg/mL"}
{"STRUCTURE_SMILES_STRING": "O=C(O)c1ccc(-n2cc(/C=N/Nc3c(F)c(F)cc(F)c3F)c(-c3cccc(F)c3)n2)cc1", "MIC": "12.5 µg/mL"}
{"STRUCTURE_SMILES_STRING": "CN(/N=C/c1cn(-c2ccc(C(=O)O)cc2)nc1-c1cccc(F)c1)c1ccccc1", "MIC": "25 µg/mL"}
{"STRUCTURE_SMILES_STRING": "O=C(O)c1ccc(-n2cc(/C=N/Nc3cccc(Cl)c3F)c(-c3ccc(F)cc3)n2)cc1", "MIC": "12.5 µg/mL"}
{"STRUCTURE_SMILES_STRING": "O=C(O)c1ccc(-n2cc(/C=N/N(c3ccccc3)c3ccccc3)c(-c3cccc(F)c3)n2)cc1", "MIC": "3.12 µg/mL"}
{"STRUCTURE_SMILES_STRING": "O=C(O)c1ccc(-n2cc(/C=N/Nc3cccc(Br)c3)c(-c3ccc(F)cc3)n2)cc1", "MIC": "12.5 µg/mL"}
